tested.system: cell-free Hb (Homo sapiens, UniProt P68871+P69905)
Construct: Hemoglobin was prepared from centrifuging human blood; from tissue; host or cells: human blood (red cells lysed, Hb purified on DEAE sephacel)
Sequence (P69905 2-142 limits assumed): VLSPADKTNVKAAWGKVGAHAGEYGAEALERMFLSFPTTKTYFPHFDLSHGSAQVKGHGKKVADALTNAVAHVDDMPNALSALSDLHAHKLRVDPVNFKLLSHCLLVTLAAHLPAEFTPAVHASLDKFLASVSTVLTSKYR
Sequence (P68871 2-147 limits assumed): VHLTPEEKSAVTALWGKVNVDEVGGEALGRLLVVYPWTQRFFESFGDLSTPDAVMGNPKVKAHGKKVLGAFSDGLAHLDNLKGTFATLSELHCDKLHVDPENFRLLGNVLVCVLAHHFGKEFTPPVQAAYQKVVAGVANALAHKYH
test.details: OEC study with normal cell-free Hb
Assay type: biochemical
measurement.conditions: cell-free Hb 12 mg/mL, 2 mM compound, n = 1
outcome.measure: P50 (mmHg)
One number for each entry, in mmHg.

INSERT INTO measurements (compound, uom, measured_result) VALUES
  ('O=Cc1ccc(CO[N+](=O)[O-])o1', 'mmHg', 8.4),
  ('O=Cc1ccc(CO)o1 [Compound 5HMF, 5-(hydroxymethyl) furfural, reference compound]', 'mmHg', 8.3),
  ('COc1ccc(OCc2cccc(CO)n2)c(C=O)c1', 'mmHg', 7.6),
  ('COc1ccc(C=O)c(OCc2cccc(CO)n2)c1', 'mmHg', 6.8),
  ('COc1ccc(C=O)cc1OCc1cccc(CO)n1', 'mmHg', 7.6);

Consider the additional compound presented here.
Prompt: Fill in: P50 of COc1ccc(OCc2cccc(CO[N+](=O)[O-])n2)c(C=O)c1 is ___
Completion: 7.7
